Values were extracted from paper PMC4503722.

hNCI-H716 GLP1 Secretion IC50/EC50 by entry:
Test system: NCI-H716 cells
Experiment: cells
Format: cell-based, Human
Conditions: assay number 12

# count of solved cases: 3
• CCCCCCCCCCCCCCCCCCNC(=O)OC1CCN(C(=O)OC[C@H](COC(=O)N(Cc2cccc[n+]2CC)C(=O)c2ccccc2OC)OC)CC1.[Cl-] [NCGC00183020-01] = 9.522 µM
• CC(COc1ccccc1)NN (stereo not shown) [NCGC00183828-01] = > 40 µM
• Clc1ccc(C(Cn2ccnc2)OCc2c(Cl)cccc2Cl)c(Cl)c1 (stereo not shown) [NCGC00179642-03] = > 40 µM

Now look at this one.
State the recorded hNCI-H716 GLP1 Secretion IC50/EC50 for this entry: O=C(O)c1cc(N=Nc2ccc([O-])c(C(=O)O)c2)ccc1[O-].[Na+].[Na+] [NCGC00181008-02]
> 40 µM

---

pIC50 by entry:
Test system: HCT116
Assay: cells
Type: cell-based
Conditions: Homo sapiens, HCT-116, read-out: Basal_Viability ATP HCT116
To interpret pIC50, take it as minus log10 of a concentration measured in moles per litre.

# count of solved cases: 4
• CSc1ccc2c(c1)C(N1CCN(C)CC1)Cc1ccccc1S2 (centres unmarked) [metitepine, reference compound] = 5.42
• Cc1cc(C2CCCCC2)n(O)c(=O)c1 = 6.18
• COc1ccc2cc1Oc1ccc(cc1)C[C@H]1c3c(cc4c(c3Oc3cc5c(cc3OC)CCN(C)[C@@H]5C2)OCO4)CCN1C = 5.02
• CCC1=C[C@@H]2CN(C1)Cc1c([nH]c3ccccc13)[C@@](C(=O)OC)(c1cc3c(cc1OC)N(C)[C@H]1[C@@](O)(C(=O)OC)[C@H](OC(C)=O)[C@]4(CC)C=CCN5CC[C@]31[C@@H]54)C2 = 7.02

Now look at this one.
Any idea what pIC50 came out for COc1cc(NC(C)CCCN)c2ncccc2c1 (centres unmarked) on HCT116?
5.73

---

pIC50 by entry:
Target: hp70S6K1 (RPS6KB1) (Homo sapiens, UniProt P23443)
Construct: purchased Cerep (LANCE kinase assay platform, contract assay)
Sequence (P23443 whole entry): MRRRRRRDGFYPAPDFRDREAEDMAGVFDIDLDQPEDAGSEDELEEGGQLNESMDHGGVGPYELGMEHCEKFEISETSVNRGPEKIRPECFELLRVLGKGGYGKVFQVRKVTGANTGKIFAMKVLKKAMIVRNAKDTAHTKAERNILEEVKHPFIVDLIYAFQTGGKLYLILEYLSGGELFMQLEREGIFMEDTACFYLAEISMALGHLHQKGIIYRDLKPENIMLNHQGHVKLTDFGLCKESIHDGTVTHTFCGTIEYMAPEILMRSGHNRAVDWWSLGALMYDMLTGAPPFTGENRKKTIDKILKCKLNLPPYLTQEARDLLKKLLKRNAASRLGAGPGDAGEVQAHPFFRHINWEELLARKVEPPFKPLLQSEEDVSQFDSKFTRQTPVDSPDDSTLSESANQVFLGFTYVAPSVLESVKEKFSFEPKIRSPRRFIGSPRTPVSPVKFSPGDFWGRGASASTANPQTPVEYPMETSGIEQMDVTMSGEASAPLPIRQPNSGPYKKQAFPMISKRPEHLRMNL
Test: Cerep LANCE kinase assay hp70S6K1 (S1 assay 31)
Type: biochemical
Details: read-out: p70S6K1
pIC50: −log10 of the molar value.

# count of solved cases: 2
* CC[C@]1(O)C[C@@H]2CN(CCc3c([nH]c4ccccc34)[C@@](C(=O)OC)(c3cc4c(cc3OC)N(C)[C@H]3[C@@](O)(C(=O)OC)[C@H](OC(C)=O)[C@]5(CC)C=CCN6CC[C@]43[C@@H]65)C2)C1 | < 4.70
* CCCCC1C(=O)N(c2ccccc2)N(c2ccc(O)cc2)C1=O (stereo not drawn) | < 4.70

Now look at this one.
State the recorded pIC50 for this entry: CC[C@@]1(O)C(=O)OCc2c1cc1n(c2=O)Cc2c-1nc1ccccc1c2/C=N/OC(C)(C)C
< 4.70

---

Tested on: HCT116 cells treated with a GSK3β inhibitor
Assay: cells
Format: cell-based
Details: assay number 26; GSK3b inhibitor pretreated
METRIC: GSK3b inh pretreated_Viability ATP HCT116 IC50/EC50 (µM)
Field format: number, assumed µM, no unit text.

State the recorded GSK3b inh pretreated_Viability ATP HCT116 IC50/EC50 for this entry: CC[C@]1(O)C[C@@H]2CN(CCc3c([nH]c4ccccc34)[C@@](C(=O)OC)(c3cc4c(cc3OC)N(C)[C@H]3[C@@](O)(C(=O)OC)[C@H](OC(C)=O)[C@]5(CC)C=CCN6CC[C@]43[C@@H]65)C2)C1.O=S(=O)(O)O [NCGC00344583-01]
0.001

State the recorded GSK3b inh pretreated_Viability ATP HCT116 IC50/EC50 for this entry: O=C(Nc1ccc(Br)cc1)c1cc(Br)c(Br)s1 [NCGC00160448-02]
0.3423

---

hKDR LANCE IC50/EC50 by entry:
Molecular target: hKDR (Homo sapiens, UniProt P35968)
Construct: purchased Cerep (LANCE kinase assay platform, contract assay)
Sequence (P35968 20-1356): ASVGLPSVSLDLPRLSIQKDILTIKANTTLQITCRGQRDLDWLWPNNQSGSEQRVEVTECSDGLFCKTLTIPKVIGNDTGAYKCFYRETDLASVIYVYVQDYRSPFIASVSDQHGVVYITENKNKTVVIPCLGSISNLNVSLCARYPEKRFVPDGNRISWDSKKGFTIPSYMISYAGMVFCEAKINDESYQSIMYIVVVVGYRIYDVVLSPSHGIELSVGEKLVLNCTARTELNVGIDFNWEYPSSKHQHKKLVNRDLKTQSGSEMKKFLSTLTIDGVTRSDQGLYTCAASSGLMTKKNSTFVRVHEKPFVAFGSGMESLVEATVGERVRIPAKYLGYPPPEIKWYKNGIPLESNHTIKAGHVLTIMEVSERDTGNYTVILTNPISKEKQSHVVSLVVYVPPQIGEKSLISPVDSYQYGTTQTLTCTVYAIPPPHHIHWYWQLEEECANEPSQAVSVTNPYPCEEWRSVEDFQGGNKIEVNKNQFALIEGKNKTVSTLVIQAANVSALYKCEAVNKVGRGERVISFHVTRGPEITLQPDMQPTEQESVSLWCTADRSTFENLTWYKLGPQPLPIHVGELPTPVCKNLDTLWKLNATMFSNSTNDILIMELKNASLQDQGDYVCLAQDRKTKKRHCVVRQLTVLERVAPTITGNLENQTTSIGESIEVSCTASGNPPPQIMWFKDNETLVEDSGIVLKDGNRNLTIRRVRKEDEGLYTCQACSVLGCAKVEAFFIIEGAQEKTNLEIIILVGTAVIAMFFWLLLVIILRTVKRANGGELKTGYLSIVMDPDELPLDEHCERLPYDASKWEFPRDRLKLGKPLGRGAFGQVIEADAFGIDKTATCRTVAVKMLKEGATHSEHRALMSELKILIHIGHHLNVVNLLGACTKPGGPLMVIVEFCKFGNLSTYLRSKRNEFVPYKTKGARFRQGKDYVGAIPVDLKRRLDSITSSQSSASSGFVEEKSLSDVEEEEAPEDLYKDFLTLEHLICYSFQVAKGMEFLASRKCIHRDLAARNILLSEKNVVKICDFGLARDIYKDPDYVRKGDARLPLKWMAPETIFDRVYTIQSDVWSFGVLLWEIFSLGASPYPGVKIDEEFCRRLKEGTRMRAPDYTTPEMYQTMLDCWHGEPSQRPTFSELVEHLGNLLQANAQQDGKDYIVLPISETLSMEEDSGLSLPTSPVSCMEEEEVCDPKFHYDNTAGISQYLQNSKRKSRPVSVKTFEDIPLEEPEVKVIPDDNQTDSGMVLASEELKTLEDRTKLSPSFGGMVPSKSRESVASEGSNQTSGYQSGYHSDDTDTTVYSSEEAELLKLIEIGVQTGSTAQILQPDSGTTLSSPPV
Assay: Cerep LANCE kinase assay hKDR (S1 assay 32)
Type: biochemical
Conditions: assay number 32
Field format: number, assumed µM, no unit text.

• Cc1cc(O)c2ccccc2c1O [NCGC00253592-01] = 18.36

State the recorded hKDR LANCE IC50/EC50 for this entry: COc1ccc(-c2ccc3cc(C(=O)O)ccc3c2)cc1C12CC3CC(CC(C3)C1)C2 [NCGC00164617-04]
7.1

---

pIC50 by entry:
Test system: SNU-C1
Assay: cells
Assay type: cell-based
Conditions: assay number 30; basal; read-out: Basal_Viability ATP SNU-C1 summarized IC50
To interpret pIC50, take it as minus log10 of a concentration measured in moles per litre.

• Oc1c(I)cc(I)c2cccnc12 = 7.41

Now look at this one.
State the recorded pIC50 for this entry: O=C1C2CC=CCC2C(=O)N1SC(Cl)(Cl)Cl (centres unmarked)
6.04

---

System: DLD-1
Test: cells
Assay type: cell-based
Details: assay number 23; basal
METRIC: Basal_Viability ATP DLD-1 IC50/EC50 (µM)
Field format: number, assumed µM, no unit text.

# count of solved cases: 4
- O=C(Nc1ccc(Br)cc1)c1cc(Br)c(Br)s1 [NCGC00160448-02]: 0.3353
- COc1cccc2c1C(=O)c1c(O)c3c(c(O)c1C2=O)C[C@@](O)(C(=O)CO)C[C@@H]3O[C@H]1C[C@H](N)[C@H](O[C@@H]2CCCCO2)[C@H](C)O1 [NCGC00344543-01]: 8.952
- COc1cccc2c1C(=O)c1c(O)c3c(c(O)c1C2=O)C[C@@](O)(C(C)=O)C[C@@H]3O[C@H]1C[C@H](N)[C@H](O)[C@H](C)O1 [NCGC00024246-15]: 0.188
- COc1ccc(-c2ccc3cc(C(=O)O)ccc3c2)cc1C12CC3CC(CC(C3)C1)C2 [NCGC00164617-04]: 0.5971

State the recorded Basal_Viability ATP DLD-1 IC50/EC50 for this entry: Cc1ccc(C(=O)c2cc(O)c(O)c([N+](=O)[O-])c2)cc1 [NCGC00181767-03]
6.142

---

Tested on: endothelial tube formation in co-cultures of ECFCs and ADSCs treated with VEGF
Assay: cells
Assay type: cell-based, human
METRIC: VEGF_ADSC\ECFC Angio CD31 TubeArea IC50/EC50 (µM)
Field format: number, assumed µM, no unit text.

• C[C@]12CC[C@@H]3c4ccc(O)cc4CC[C@H]3[C@@H]1CC[C@@H]2OC(=O)CCC1CCCC1 [NCGC00166134-02] = 6.3667
• CC[C@]1(O)C[C@@H]2CN(CCc3c([nH]c4ccccc34)[C@@](C(=O)OC)(c3cc4c(cc3OC)N(C)[C@H]3[C@@](O)(C(=O)OC)[C@H](OC(C)=O)[C@]5(CC)C=CCN6CC[C@]43[C@@H]65)C2)C1.O=S(=O)(O)O [NCGC00344583-01] = 0.0026
• Cc1nc2ccccc2n1Cc1ccc(Cl)cc1 [NCGC00160416-02] = 7.3825
• CCCCCCCC[N+](C)(C)CCCCCCCC [NCGC00182056-04] = 1.3911

Now look at this one.
State the recorded VEGF_ADSC\ECFC Angio CD31 TubeArea IC50/EC50 for this entry: Cc1ccc([N+](=O)[O-])[c]2c1[O][Hg]2 [NCGC00249897-01]
0.6678

---

System: nuclear β-catenin in C2C12 cells
Test: cells
Assay type: cell-based
Conditions: Mus musculus, C2C12, IC50 / EC50; C2C12 beta-catenin translocation; read-out: Wnt Pathway
EC50 by entry:

# count of solved cases: 4
* NC(=O)C1(N2CCCCC2)CCN(CCCN2c3ccccc3CCc3ccc(Cl)cc32)CC1 | > 20 µM
* CN(C)CCOC(c1ccccc1)c1ccc(Br)cc1 (centres unmarked) | > 10 µM
* NCCNc1ccc(NCCN)c2c1C(=O)c1ccncc1C2=O | > 10 µM
* Cc1ccc2nc(N)[nH]c(=O)c2c1Sc1ccncc1 [nolatrexed, reference compound] | 0.244 µM

Now look at this one.
State the recorded EC50 for this entry: Cc1ccc(CCn2c3c(c4cc(Cl)ccc42)CN(C)CC3)cn1
> 10 µM

---

Tested on: RKO
Test: cells
Format: cell-based
Basal_Viability ATP RKO IC50/EC50 by entry:

• Cc1c(C)n(Cc2ccccc2)c2ccc(C(=O)OCCN(C)C)cc12 [NCGC00160412-04] = 12.7694 µM
• CN1CCCC(CC2c3ccccc3Sc3ccccc32)C1.Cl (centres unmarked) [NCGC00273481-01] = 3.4891 µM
• CCc1oc2ccccc2c1C(=O)c1cc(I)c(O)c(I)c1 [NCGC00160408-03] = 0.003 µM
• Cc1onc(-c2ccccc2)c1-c1ccc(S(N)(=O)=O)cc1 [NCGC00095129-06] = > 20 µM

State the recorded Basal_Viability ATP RKO IC50/EC50 for this entry: O=C(c1cc(O)c(O)c(O)c1)c1ccc(O)c(O)c1O [NCGC00249050-02]
0.1924 µM
